# Study Target: human full-length MKNK1 (Homo sapiens (Human), UniProt Q9BUB5, T344D)
# Sequence (Q9BUB5 other isoform, or with tags, fused parts or gaps T344D): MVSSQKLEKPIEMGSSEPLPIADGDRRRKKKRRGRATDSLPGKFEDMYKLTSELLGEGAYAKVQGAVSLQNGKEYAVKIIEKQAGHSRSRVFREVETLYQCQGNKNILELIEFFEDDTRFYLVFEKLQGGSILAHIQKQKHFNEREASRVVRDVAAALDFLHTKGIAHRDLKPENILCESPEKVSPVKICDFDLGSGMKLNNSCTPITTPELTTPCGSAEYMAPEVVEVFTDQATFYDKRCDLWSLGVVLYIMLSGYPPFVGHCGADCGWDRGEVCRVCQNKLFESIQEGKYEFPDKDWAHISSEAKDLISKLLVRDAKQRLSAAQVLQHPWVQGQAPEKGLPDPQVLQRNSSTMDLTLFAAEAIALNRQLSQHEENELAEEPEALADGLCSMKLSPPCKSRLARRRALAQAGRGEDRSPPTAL
# Method: MKNK1 kinase high ATP assay (TR-FRET)
# Type: biochemical
# Conditions Used: ATP 2 mM final; 15 min preincubation with enzyme
pIC50: −log10 of the molar value.
Reported Metric: pIC50

1. OC[C@@H]1CCCN1c1ccc2ncc(-c3cc4ccccc4o3)n2n1 | 8.15
2. OC1CN(c2ccc3ncc(-c4cc5ccccc5o4)n3n2)C1 | 7.92
3. O[C@H]1CCN(c2ccc3ncc(-c4cc5ccccc5o4)n3n2)C1 | 7.82
4. OC1CCN(c2ccc3ncc(-c4cc5ccccc5o4)n3n2)C1 (stereo not drawn) | 8.22
5. OCC1CCCN(c2ccc3ncc(-c4cc5ccccc5o4)n3n2)C1 (stereo not drawn) | 7.89
6. O[C@@H]1CCCN(c2ccc3ncc(-c4cc5ccccc5o4)n3n2)C1 | 7.82
